Target: Peroxisome proliferator-activated receptor alpha (Homo sapiens, UniProt Q07869, I272F)
Sequence (Q07869 whole entry I272F): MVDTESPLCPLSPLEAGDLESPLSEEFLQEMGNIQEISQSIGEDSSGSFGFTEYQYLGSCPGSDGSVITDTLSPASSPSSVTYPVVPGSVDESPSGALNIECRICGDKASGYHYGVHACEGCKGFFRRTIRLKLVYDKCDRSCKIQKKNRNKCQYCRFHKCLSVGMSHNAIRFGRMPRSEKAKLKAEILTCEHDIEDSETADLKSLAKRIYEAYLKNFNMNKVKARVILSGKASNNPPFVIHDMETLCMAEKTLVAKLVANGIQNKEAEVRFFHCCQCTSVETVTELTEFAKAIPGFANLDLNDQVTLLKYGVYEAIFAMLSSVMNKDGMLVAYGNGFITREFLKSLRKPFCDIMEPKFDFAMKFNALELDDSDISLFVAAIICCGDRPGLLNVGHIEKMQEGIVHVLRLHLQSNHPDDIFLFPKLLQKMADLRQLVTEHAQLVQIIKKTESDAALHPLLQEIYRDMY
Test: Transcriptional activation activity on human I272F-mutant Peroxisome proliferator activated receptor alpha expressed in CHO-K1 cells
readout_kind: EC50 (nM)
Just the number in nM, nothing appended.

Reference set, count: 2
CC[C@@H](Cc1ccc(OC)c(C(=O)NCc2ccc(C(F)(F)F)cc2)c1)C(=O)O 2820
CC[C@@H](Cc1ccc(OC)c(C(=O)NCc2ccc(Oc3ccc(F)cc3)cc2)c1)C(=O)O 667

# EC50 lookup, item CC[C@@H](Cc1ccc(OC)c(OCCc2ccc(C(F)(F)F)cc2)c1)C(=O)O 33400

----------
Target: Peroxisome proliferator-activated receptor alpha (Homo sapiens, UniProt Q07869)
Sequence (Q07869 whole entry): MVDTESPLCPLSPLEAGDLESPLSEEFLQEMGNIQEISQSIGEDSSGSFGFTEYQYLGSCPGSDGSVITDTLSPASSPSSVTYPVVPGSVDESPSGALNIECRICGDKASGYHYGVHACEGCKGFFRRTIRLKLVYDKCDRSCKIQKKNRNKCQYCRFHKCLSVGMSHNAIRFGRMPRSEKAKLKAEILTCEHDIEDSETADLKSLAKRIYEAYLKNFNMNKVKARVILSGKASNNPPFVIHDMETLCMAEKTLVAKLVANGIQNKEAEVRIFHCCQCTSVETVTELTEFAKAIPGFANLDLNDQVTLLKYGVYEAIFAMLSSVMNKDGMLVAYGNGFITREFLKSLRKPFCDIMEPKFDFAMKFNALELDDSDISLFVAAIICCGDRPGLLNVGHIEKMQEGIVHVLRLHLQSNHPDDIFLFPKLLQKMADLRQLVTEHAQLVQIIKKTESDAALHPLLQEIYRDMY
Test: Transcriptional activation activity on human Peroxisome proliferator activated receptor alpha expressed in CHO-K1 cells
readout_kind: EC50 (nM)
Just the number in nM, nothing appended.

CC[C@@H](Cc1ccc(OC)c(OCCc2ccc(C(F)(F)F)cc2)c1)C(=O)O 2720
CC[C@@H](Cc1ccc(OC)c(C(=O)NCc2ccccc2)c1)C(=O)O 3380
CC[C@@H](Cc1ccc(OC)c(C(=O)NCc2ccc(C(F)(F)F)cc2)c1)C(=O)O 80.3

# ---- query compound ----
# EC50 lookup, item CC[C@@H](Cc1ccc(OC)c(C(=O)NCc2ccc(Oc3ccc(F)cc3)cc2)c1)C(=O)O 0.615
